The compounds listed here are annotated with their IC50.
target.or.test.system: hA1 (Homo sapiens (Human))
Sequence (P30542 whole entry): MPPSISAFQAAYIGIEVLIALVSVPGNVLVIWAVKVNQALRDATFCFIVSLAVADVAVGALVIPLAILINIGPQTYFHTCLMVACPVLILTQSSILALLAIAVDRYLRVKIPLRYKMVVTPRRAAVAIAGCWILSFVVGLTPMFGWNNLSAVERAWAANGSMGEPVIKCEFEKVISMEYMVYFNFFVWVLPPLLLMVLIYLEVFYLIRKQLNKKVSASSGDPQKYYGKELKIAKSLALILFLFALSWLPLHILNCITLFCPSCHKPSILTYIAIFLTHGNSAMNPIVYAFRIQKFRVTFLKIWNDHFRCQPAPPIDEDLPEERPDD
assay.method.text: FLIPR inhibition assay in hADORA1/CHO (hA1 expressing) cells
Assay type: cell-based
condition.parameters: hADORA1/CHO cells, FLIPR calcium, adenosine stimulation; read-out: cAMP & FLIPR IC50 (nM) hA1
Experimental: hADORA1/CHO (hA1 expressing) cells (Genscript) were plated at 1×10^4 cells/well into 384-well polystyrene plates one day before starting the experiment. On the day of experiment, the supernatant was discard and replaced with 40 µL of dye (FLIPR calcium 5 Assay Kit) per well and the plates were incubated for 60 mins at 37° C. plus 5% CO2. Then testing compounds were added at different concentrations for FLIPR™ inhibition assay. […]
Give the number; nM is assumed, so skip it.

Before answering, review these 3 worked examples.
Cc1cnc2ccc(-c3c(N4CCOC[C@@H]4C)nc(N)n4nc(Cc5ncccc5F)nc34)cn12 (single isomer, unassigned; isomer 1) = 3270
Cn1cc(-c2c(-c3cc(F)cc(F)c3)nc(N)n3nc(Cc4ncccc4F)nc23)ccc1=O = 8.8
CN(C)c1cc(-c2c(-c3ccc(F)cc3)nc(N)n3nc(Cc4c(F)cccc4F)nc23)ccn1 = 42

get_value(item= Cc1cnc2ccc(-c3c(-c4ncco4)nc(N)n4nc(CC5CCCO5)nc34)cn12 (single isomer, unassigned) [Example 106-2] , readout=IC50) returns 34.9

###

target.or.test.system: hA2a (Homo sapiens (Human), UniProt P29274)
Sequence (P29274 whole entry): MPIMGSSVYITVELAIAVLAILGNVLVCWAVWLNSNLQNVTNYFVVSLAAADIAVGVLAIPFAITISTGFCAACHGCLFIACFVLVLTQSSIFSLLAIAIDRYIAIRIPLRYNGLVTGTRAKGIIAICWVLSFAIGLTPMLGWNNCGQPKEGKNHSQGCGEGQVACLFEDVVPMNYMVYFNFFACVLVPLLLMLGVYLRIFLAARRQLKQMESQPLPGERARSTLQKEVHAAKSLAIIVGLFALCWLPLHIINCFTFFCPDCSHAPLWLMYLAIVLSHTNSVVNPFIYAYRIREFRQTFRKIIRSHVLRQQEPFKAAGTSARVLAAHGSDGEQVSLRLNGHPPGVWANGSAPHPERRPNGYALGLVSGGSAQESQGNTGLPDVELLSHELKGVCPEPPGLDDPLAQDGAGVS
assay.method.text: cAMP inhibition assay in hA2a/CHO cells
Assay type: cell-based
condition.parameters: adenosine stimulation, read-out: cAMP & FLIPR IC50 (nM) hA2a
Under this convention, y denotes IC50 strictly below 4 nM and n denotes IC50 at or above 4 nM.

// known answers, use as guide
Cc1cc(-c2c(-c3ccc(F)cc3)nc(N)n3nc(Cc4cccc(C#N)n4)nc23)ccn1 [Example 19] = n
Cc1cc(-c2c(-c3ncco3)nc(N)n3nc(Cc4c(F)cccc4F)nc23)cc(C)n1 [Example 33] = n
Nc1nc(-c2ncco2)c(-c2ccnc(OC(F)F)c2)c2nc(Cc3c(F)cccc3F)nn12 [Example 85] = n
Nc1nc(-c2ccc(F)cc2)c(-c2ccc3ncsc3c2)c2nc(Cc3ncccc3F)nn12 [Example 88] = y
CN1CCC[C@H]1Cc1nc2c(-c3ccc4ncn(C)c4c3)c(-c3ccc(F)cc3)nc(N)n2n1 [Example 103] = n
Cc1cnc2ccc(-c3c(N4CCCC4)nc(N)n4nc(Cc5ncccc5F)nc34)cn12 [Example 101] = n

Q) I'd appreciate it if you could check whether Cc1cc(-c2c(-c3ccc(F)cc3)nc(N)n3nc(Cc4ncccc4F)nc23)cn(C)c1=O [Example 29] has IC50 smaller than 4 nM.
A) y

Q) I'd appreciate it if you could check whether CC(C)n1cc(-c2c(-c3ccc(F)cc3)nc(N)n3nc(Cc4ncccc4F)nc23)ccc1=O [Example 55] has IC50 smaller than 4 nM.
A) y

Q) I'd appreciate it if you could check whether Nc1nc(-c2ncco2)c(-c2ccc3nccn3c2)c2nc(Cc3ncccc3OC(F)F)nn12 [Example 74] has IC50 smaller than 4 nM.
A) y

Q) I'd appreciate it if you could check whether Cn1cc(-c2c(-c3cccc(F)c3)nc(N)n3nc(Cc4ncccc4F)nc23)ccc1=O [Example 40] has IC50 smaller than 4 nM.
A) n
